So I've got a bunch of compounds here, and I need their melting point values.

Below are worked cases with known answers.
- smiles: "Cc1c(F)cc(C(=O)NC2CC2)cc1I"
  result_value: "112 to 114 °C"
- smiles: "Brc1ccccc1-c1nnnn1C(c1ccccc1)(c1ccccc1)c1ccccc1"
  result_value: "160 to 162 °C"
- smiles: "CC(C)(C)c1ccc(-c2c(-c3ccncc3)sc3nc(=O)cc(N)n23)cc1"
  result_value: "259 to 262 °C"
- smiles: "COC(=O)c1ccc(Br)cc1COc1ccccc1"
  result_value: "69.5 to 70.5 °C"
- smiles: "O=C1c2ccccc2C(=O)N1CCOc1ccncc1"
  result_value: "157 to 158 °C"

Hi team, please reply with melting point for each item in this list.
1. Cn1c(=O)c2c(ncn2CCN2CCC(c3c[nH]c4ccccc34)CC2)n(C)c1=O
2. Nc1ncnc2c1c(-c1ccccc1)cn2-c1cccc(OCCCl)c1
3. O=c1ccc(-c2ccc(OC(F)(F)F)cc2)n[nH]1

OUTPUT:
1: 201 °C; 2: 166 to 168 °C; 3: 178 °C

Hi team, please reply with melting point for each item in this list.
1. COc1cc(O)c2c(=O)c(OC)c(-c3ccc(OCc4ccccc4)c(OC)c3)oc2c1
2. CC(C)=C(C(=O)O)c1ccc(Cl)cc1

OUTPUT:
1. 156 to 157 °C
2. 144 to 145 °C

###

So I've got a bunch of compounds here, and I need their melting point values.
Answers are plain numbers, in °C.

- smiles: "CCOC(=O)c1cc2cccc(N(C)S(=O)(=O)c3nccn3C)c2[nH]1"
  melting point, °C: 120

Alright, here's another compound for you.
Record `O=C(c1ccccc1)c1cc([N+](=O)[O-])ccc1NCc1ccccc1` . Reported melting point: 120

###

So I've got a bunch of compounds here, and I need their melting point values.

Below are worked cases with known answers.
- smiles: "CNc1nc(NCc2ccc(NC(=O)c3ccc(F)cc3)cc2)c2c(C)cccc2n1"
  metric: "melting point"
  result_value: "228 to 230 °C"
- smiles: "Cc1cccc(-c2n[nH]cc2-c2ccnc(-c3ccc(S(C)(=O)=O)cc3)c2)n1"
  metric: "melting point"
  result_value: "232 to 234 °C"

Hi team, please reply with melting point for each item in this list.
1. CC(=O)Oc1ccc(NC(=O)c2ccc(Sc3cc4c(cc3C)C(C)(C)CCC4(C)C)cc2)cc1
2. CS(=O)(=O)c1cnc2c(c1)cc(-c1ncco1)n2Cc1ccc(F)cc1
3. CCN1C(=O)C(C)(C)CCc2c1ccc(Nc1ncc(Cl)c(Nc3ccc(N4CCOCC4)cc3OC)n1)c2OC

OUTPUT:
1: 186 to 187 °C; 2: 200 to 201 °C; 3: 181 to 183 °C

###

So I've got a bunch of compounds here, and I need their melting point values.

- compound: "O=C(C=Cc1ccncc1)C=Cc1ccncc1"
  melting point: "145 to 146 °C"
- compound: "Cc1cc(Br)ccc1NC(=O)c1cccc(S(=O)(=O)N2CCCCCC2)c1"
  melting point: "177 to 179 °C"
- compound: "COc1c(Oc2ccc3ncc([N+](=O)[O-])n3n2)cnc(CNc2nc(C)nc(C)c2Cl)c1C"
  melting point: "230 to 232 °C"
- compound: "CC(C)(F)Cn1c(CCO)nc2c(N)nc3cccnc3c21"
  melting point: "224 to 225 °C"
- compound: "CCOc1ccc2c(c1)C(C)(c1ccccc1Cl)C(=O)N2S(=O)(=O)c1ccc(C(=O)O)cc1 (centres undefined)"
  melting point: "174 °C"
- compound: "Cc1ccc(C)c(OCc2ccccc2CC#N)c1"
  melting point: "51.5 to 53 °C"

Hi team, please reply with melting point for each item in this list.
1. CC(C)(O)CC(=O)N[C@H]1CC[C@H](CCN2CCN(c3nccc4c3OCC4)CC2)CC1
2. O=C(CCCOc1ccc(C=Cc2ccncc2)cc1)Nc1nnn[nH]1
3. C=CC[C@H]1C(=O)N[C@H]2CCN(C(=O)OCc3ccccc3)[C@@H]21 (relative stereo)

OUTPUT:
139 °C
274 to 276 °C
160 °C

###

So I've got a bunch of compounds here, and I need their melting point values.

Below are worked cases with known answers.
- compound: "Cc1onc(-c2ccccc2)c1-c1[nH]c2ccccc2c1C(=O)C(=O)N(C)C"
  melting point: "258 to 260 °C"
- compound: "O=C(CN1C(=O)C2(COc3cc(F)c(F)cc32)c2ccccc21)Nc1ccccc1F (centres undefined)"
  melting point: "97 to 100 °C"
- compound: "Cc1nc(-n2cccc(C(=O)Nc3ccccc3)c2=O)sc1C(=O)NCc1ccccc1"
  melting point: "225 to 227 °C"

Alright, here's another compound for you.
Record CC(=O)NC(C(=O)NC(C(=O)NC(Cc1ccccc1)C(O)C(Cc1ccccc1)NC(=O)C(NC(=O)C(NC(C)=O)C(C)C)C(C)C)C(C)C)C(C)C (centres undefined) . Reported melting point: 271 to 272 °C

###

So I've got a bunch of molecules here, and I need their melting point values.

- molecule: "COc1ccc(C2CCc3cc(C)ccc3C2=O)cc1 (centres undefined)"
  melting point: "80 to 82 °C"
- molecule: "COc1ccc2cccc(N3C(=O)CN(Cc4ccccc4)CC3=O)c2c1"
  melting point: "178 °C"
- molecule: "C[C@H]1CCCC(C)(C)[C@@H]1C(=O)O"
  melting point: "44 to 54 °C"
- molecule: "COc1ccc(C(=O)Nc2ccc(-c3ccc(C)cc3Cl)cc2)cc1CCCN(C)C"
  melting point: "63 to 66 °C"
- molecule: "CN(C)C1(c2ccccc2)CCC(c2cc3ccccc3n2S(=O)(=O)c2ccccc2)CC1 (centres undefined)"
  melting point: "139 to 142 °C"

Hi team, please reply with melting point for each item in this list.
1. CCN(c1nc(C)cc(-c2ccccc2C(=O)O)n1)c1ccc(C(C)C)cc1Br
2. CN1C(=O)C2(CCN(CCCC(=O)c3ccc(F)cc3)CC2)c2ccccc21
3. Cc1cc(C(N)=O)ncc1C(SCCC=C(F)F)c1c(F)ccc(F)c1F (centres undefined)
4. COc1cccc(C2CCCN2S(=O)(=O)c2ccc(Cl)cc2)c1 (racemic)
5. COc1ccc2ccccc2c1C(=O)/C=C/c1ncn(C(c2ccccc2)(c2ccccc2)c2ccccc2)c1C

OUTPUT:
1: 209 to 210 °C; 2: 95 to 96.5 °C; 3: 97 to 98 °C; 4: 95 °C; 5: 220 to 222 °C

Hi team, please reply with melting point for each item in this list.
1. COc1ccc(C(=O)Nc2ccc3ccc(C#N)nc3n2)cc1
2. CCCc1c(CSc2nnc(SCCCS(=O)CC(=O)O)s2)ccc(C(C)=O)c1O (centres undefined)
3. Nc1ccc(Cn2cnnn2)cc1
4. CN(CCCCCCNC(=NCCCOc1cccc(CN2CCCCC2)c1)NC#N)CCN(Cc1ccc(F)cc1)c1ccccn1
5. COc1cc(C(=O)N2Cc3cccn3Cc3ccccc32)ccc1-n1c(C)ccc1C
6. Cc1c(Br)c2c(c(C)c1NC(=O)CC(C)(C)C)C(c1ccc(C(C)C)cc1)CS2 (centres undefined)
7. CCOC(=O)c1sc(SC)c2c1CCC(NC(C)=O)C2=O (centres undefined)
8. COc1ccc(NC(=O)c2ccc(F)c(F)c2)cc1NS(=O)(=O)c1ccc(C#N)cc1

OUTPUT:
1. 283 °C
2. 107 to 110 °C
3. 138 to 140 °C
4. 58 °C
5. 141 to 144 °C
6. 207 to 208 °C
7. 215 to 216 °C
8. 255 to 257 °C

###

So I've got a bunch of molecules here, and I need their melting point values.

Hi team, please reply with melting point for each item in this list.
1. CCCc1c(OCCOc2ccc(S(=O)(=O)c3nnn[nH]3)cc2)ccc(C(C)=O)c1O
2. CCC(CC)(COc1nn2ccnc2cc1C)CS(N)(=O)=O
3. Cc1nc(-n2ccn(Cc3ccc(F)cc3)c2=O)sc1C(=O)NCc1ccccc1
4. Fc1ccc(OCCCN2CCC(CNc3nc4ccccc4s3)CC2)c(OCc2ccccc2)c1

OUTPUT:
["88 to 90 °C", "210 to 211 °C", "167 to 168 °C", "130 °C"]

Hi team, please reply with melting point for each item in this list.
1. Cc1c(NC(=O)c2ccc(CC(=O)c3ccccc3)cc2)ccc2cc(CN3CCCC3)cnc12
2. CC(C)(C)C(=NO)C(C)(C)CCCCCCC(C)(C)C(=NO)C(C)(C)C
3. O=C1C(O)OCN1c1cccc(C(F)(F)F)c1 (stereo not given)
4. O=Cc1ccc2c(n1)C(=O)C(NC(=O)CCl)=CC2=O
5. O=C(Nc1nc(=O)[nH]s1)c1ccc2ccccc2c1

OUTPUT:
1. 187 °C
2. 203 to 209 °C
3. 75 to 76 °C
4. 190 to 192 °C
5. > 250 °C

Record `CCOC(=O)c1cccn2c(C#N)c(-c3ccccc3)nc12` . Reported melting point: 87 to 89 °C
